Where do the numbers come from? From the RNAGym collection of RNA variant scans (doi:10.1093/molbev/msab373).

Exercise: for every item that follows, state its recorded reverse-splicing fitness.
B1: Azoarcus group I ribozyme (parent)
chain: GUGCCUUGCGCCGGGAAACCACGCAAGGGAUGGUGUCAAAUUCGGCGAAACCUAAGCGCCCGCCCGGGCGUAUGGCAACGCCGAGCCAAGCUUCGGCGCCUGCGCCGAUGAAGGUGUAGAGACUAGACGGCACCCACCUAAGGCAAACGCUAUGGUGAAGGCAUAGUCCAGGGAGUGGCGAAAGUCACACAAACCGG

# Variants of: B1
# TEST SUMMARY: reverse-splicing fitness (ratio to wild type); higher = more active; in vitro selection; Mg2+ level not given

# count of solved cases: 5
variant_id="A145G C150A C169G U176G" reported=0.00527
variant_id="C82A A111G A120U A145U C150A C169A U176G" reported=0.00187
variant_id="C82G A111U A120U C150G C169U" reported=0.00549
variant_id="C82G A111C A120U A145G C150G C169U U176G" reported=0.00438
variant_id="C82G A111U A145G C150A C169G U176A" reported=0.0179

Hi there! I need reverse-splicing fitness for each item below, if you can.
1. C82A A111C A120C C150U C169U U176A
2. C82U A111U A120U A145C C169G U176G
3. A111C A120C A145G C150G C169U U176A
4. C82A A111U A120C C169U U176C
5. C82G A111G A120U A145G C150U C169A U176C

Reply:
1: 0.0177; 2: 0.0016; 3: 0.0114; 4: 0.0158; 5: 0.00519
